Tested on: recombinant human mGluR4a receptors (Homo sapiens)
Sequence (Q14833 33-912): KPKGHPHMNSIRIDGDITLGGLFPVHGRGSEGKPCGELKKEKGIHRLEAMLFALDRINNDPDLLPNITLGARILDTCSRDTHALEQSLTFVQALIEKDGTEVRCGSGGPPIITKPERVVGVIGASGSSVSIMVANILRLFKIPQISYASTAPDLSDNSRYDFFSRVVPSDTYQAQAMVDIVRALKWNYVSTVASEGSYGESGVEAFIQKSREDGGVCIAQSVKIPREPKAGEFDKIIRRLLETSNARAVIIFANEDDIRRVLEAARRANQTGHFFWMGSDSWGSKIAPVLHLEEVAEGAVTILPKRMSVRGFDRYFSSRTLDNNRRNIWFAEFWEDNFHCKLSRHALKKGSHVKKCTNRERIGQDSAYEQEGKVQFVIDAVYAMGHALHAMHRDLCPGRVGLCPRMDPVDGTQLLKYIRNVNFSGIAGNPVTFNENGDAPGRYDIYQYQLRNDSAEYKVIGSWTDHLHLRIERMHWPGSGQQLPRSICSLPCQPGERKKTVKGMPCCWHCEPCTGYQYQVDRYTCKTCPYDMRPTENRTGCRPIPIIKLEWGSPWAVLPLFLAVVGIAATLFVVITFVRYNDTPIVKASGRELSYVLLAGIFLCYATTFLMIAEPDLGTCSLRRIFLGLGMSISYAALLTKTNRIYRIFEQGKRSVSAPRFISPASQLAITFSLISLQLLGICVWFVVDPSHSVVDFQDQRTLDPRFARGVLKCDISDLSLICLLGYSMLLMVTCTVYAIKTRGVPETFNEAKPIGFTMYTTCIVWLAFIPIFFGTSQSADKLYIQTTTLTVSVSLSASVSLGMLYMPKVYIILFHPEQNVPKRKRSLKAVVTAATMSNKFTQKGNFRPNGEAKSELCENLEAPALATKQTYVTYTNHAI
Method description: mGluR4 assay on HEK-expressing human mGluR4 (fluorescent cell based Ca2+ mobilization assay, FLIPR)
Condition set: HEK-293 cells expressing hmGluR4; enhancement of EC25 glutamate response; mean of at least three independent experiments in duplicate; read-out: Ca^2+ Flux (mean EC50)
Value kind: EC50

COc1ccnc(Nc2csc(-c3cn[nH]c3)n2)n1 [Compound 1-5]
0.1 to 1 µM
Cc1cccc(Nc2csc(-c3cn[nH]c3)n2)n1 [Compound 1-6]
0.1 to 1 µM
c1ccc(Nc2nsc(-c3cn[nH]c3)n2)nc1 [Compound 1-2]
0.1 to 1 µM
c1ccc(Nc2csc(-c3cn[nH]c3)n2)nc1 [Compound 1-1]
< 0.1 µM

Requested read-out EC50, target or system recombinant human mGluR4a receptors (Homo sapiens), entry FC(F)(F)c1n[nH]cc1-c1nc(Nc2ccccn2)cs1 [Compound 1-8]
0.1 to 1 µM

Given the entry Fc1cccc(Nc2csc(-c3cn[nH]c3)n2)n1 [Compound 1-3] , what EC50 was observed with recombinant human mGluR4a receptors (Homo sapiens)?
< 0.1 µM

What is its EC50 for recombinant human mGluR4a receptors (Homo sapiens)? Entry: FC(F)(F)c1n[nH]cc1-c1nc(Nc2ncccn2)cs1 [Compound 1-11]
< 0.1 µM

Request - read-out EC50 | tested on recombinant human mGluR4a receptors (Homo sapiens) | molecule Cc1ccnc(Nc2csc(-c3cn[nH]c3)n2)n1 [Compound 1-4]
0.1 to 1 µM

Kindly state the measured EC50 obtained for c1cnc(Nc2csc(-c3c[nH]nc3C3CC3)n2)nc1 [Compound 1-10] with recombinant human mGluR4a receptors (Homo sapiens).
< 0.1 µM

Hi! What's the reported EC50 for c1ccc(Nc2csc(-c3c[nH]nc3C3CC3)n2)nc1 [Compound 1-9] on recombinant human mGluR4a receptors (Homo sapiens)?
< 0.1 µM

// fetch recombinant human mGluR4a receptors (Homo sapiens) EC50 for c1cnc(Nc2csc(-c3cn[nH]c3)n2)nc1 [Compound 1-7]
< 0.1 µM
